target: hT1R1/hT1R3 umami receptor (Homo sapiens, UniProt Q7RTX0+Q7RTX1); construct: expressed in transfected cells; host or cells: HEK293 derivative stably expressing Gα15, clone I-17, expression induced with mifepristone; experiment: In vitro hT1R1/hT1R3 umami taste receptor activation assay (FLIPR, dose response); format: cell-based; conditions: Table A, Umami Amides; read-out: Umami EC50
Sequence (Q7RTX1 21-841): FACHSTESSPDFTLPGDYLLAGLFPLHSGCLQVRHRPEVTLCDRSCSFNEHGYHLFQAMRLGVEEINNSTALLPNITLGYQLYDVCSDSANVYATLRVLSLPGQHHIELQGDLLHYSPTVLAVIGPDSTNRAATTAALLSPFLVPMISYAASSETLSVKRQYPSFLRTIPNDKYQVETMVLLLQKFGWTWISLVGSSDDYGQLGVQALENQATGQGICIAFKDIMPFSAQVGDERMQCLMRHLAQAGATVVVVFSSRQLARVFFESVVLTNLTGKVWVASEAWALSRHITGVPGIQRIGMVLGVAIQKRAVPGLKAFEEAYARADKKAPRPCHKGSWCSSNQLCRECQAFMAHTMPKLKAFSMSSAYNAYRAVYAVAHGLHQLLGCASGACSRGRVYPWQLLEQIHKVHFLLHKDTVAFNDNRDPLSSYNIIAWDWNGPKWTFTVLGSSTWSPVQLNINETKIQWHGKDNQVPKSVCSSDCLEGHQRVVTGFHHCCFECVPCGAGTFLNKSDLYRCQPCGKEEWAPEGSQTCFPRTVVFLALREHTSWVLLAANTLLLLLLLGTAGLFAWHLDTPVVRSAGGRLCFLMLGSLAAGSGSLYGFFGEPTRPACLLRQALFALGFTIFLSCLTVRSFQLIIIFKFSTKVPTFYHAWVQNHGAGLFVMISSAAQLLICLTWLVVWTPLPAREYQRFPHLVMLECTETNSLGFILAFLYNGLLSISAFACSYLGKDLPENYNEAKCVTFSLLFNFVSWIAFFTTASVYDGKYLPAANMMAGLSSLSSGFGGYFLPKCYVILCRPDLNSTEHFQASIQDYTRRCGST
Sequence (Q7RTX0 21-852): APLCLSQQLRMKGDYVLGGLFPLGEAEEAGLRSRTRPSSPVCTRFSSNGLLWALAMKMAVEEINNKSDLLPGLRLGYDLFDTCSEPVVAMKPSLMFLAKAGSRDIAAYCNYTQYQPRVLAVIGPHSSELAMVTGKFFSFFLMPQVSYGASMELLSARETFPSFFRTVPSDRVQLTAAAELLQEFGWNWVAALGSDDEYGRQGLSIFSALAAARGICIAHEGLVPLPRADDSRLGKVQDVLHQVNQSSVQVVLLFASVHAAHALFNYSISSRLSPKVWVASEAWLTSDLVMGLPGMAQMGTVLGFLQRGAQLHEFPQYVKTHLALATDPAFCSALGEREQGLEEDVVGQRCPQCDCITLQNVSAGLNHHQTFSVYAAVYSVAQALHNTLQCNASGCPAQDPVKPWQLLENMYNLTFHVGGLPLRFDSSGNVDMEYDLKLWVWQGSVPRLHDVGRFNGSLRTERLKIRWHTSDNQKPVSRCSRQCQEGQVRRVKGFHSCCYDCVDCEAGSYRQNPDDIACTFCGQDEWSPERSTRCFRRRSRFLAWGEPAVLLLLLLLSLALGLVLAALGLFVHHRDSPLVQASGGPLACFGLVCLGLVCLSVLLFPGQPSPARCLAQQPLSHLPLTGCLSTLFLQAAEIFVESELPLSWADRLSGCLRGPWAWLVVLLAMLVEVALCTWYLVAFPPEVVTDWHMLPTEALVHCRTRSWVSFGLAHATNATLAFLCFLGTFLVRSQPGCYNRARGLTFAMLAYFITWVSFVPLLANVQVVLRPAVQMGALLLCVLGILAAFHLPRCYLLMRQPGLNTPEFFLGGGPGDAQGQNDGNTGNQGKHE
value.kind: pEC50
Give bare numbers, as −log10 of the molar value.

Study these solved cases before continuing.
CCOc1ccc(NC(=O)c2cc(Cl)ccc2Cl)cc1 [Example A3, 2,5-dichloro-N-(4-ethoxyphenyl)benzamide] : 5.97
CCCC(CCC)NC(=O)c1ccc2c(c1)NCCC2 : 7.30
COC[C@H](NC(=O)c1ccc(OC)c(C)c1)c1ccccc1 : 6.14

Parameters: items (list). Returns: pEC50 for each item.
1. COc1ccc2c(c1)CCCC2NC(=O)c1cccc(OC)c1N (centres unmarked)
2. CCCC(CCC)NC(=O)c1ccc2c(c1)CCO2
3. CCCC(CCC)NC(=O)c1ccc(OC)c(F)c1
4. CCCC(CCC)NC(=O)c1ccc2ncsc2c1
5. CCCC(CCC)NC(=O)c1cc(C)c(C)o1
6. COC(=O)C(CCSC)NC(=O)c1cc2cc(OC)ccc2o1 (centres unmarked)
7. CCCC(CCC)NC(=O)c1coc2ccccc12 [Example A123, N-(heptan-4-yl)benzofuran-3-carboxamide]

Response given:
[7.15, 5.78, 6.46, 5.80, 6.21, 5.94, 6.29]

Parameters: items (list). Returns: pEC50 for each item.
1. CCCC(CCC)NC(=O)c1ccc2ncoc2c1
2. COC(=O)[C@@H](CC(C)C)NC(=O)c1ccc2oc(C)nc2c1
3. CCOc1ccc(C(=O)NC(CC)CC(C)C)cc1C (centres unmarked)
4. CCCC(NC(=O)c1cc2cc(OC)ccc2o1)C(C)C (centres unmarked)
5. CCCC(COC)NC(=O)c1ccc(OC)c(C)c1 (centres unmarked)
6. CCCC(CC)NC(=O)c1ccc(SC)c(C)c1 (centres unmarked)
7. COC[C@@H](CC(C)C)NC(=O)c1cc2cc(OC)ccc2o1
8. COC(=O)[C@@H](CC(C)C)NC(=O)c1cc(C)cc(C)c1

Response given:
[5.72, 5.77, 6.47, 5.95, 6.07, 6.92, 6.34, 6.28]

Parameters: items (list). Returns: pEC50 for each item.
1. CCCC(CC)NC(=O)c1ccc(C)c(C)c1 (centres unmarked) [Example A56, N-(hexan-3-yl)-3,4-imethylbenzamide]
2. CCOc1ccc(NC(=O)c2c(Cl)ccc(Cl)c2OC)cc1

Response given:
[6.85, 6.66]
